The measured values listed here are drawn from patent US11040031B2.

- assay_target: full-length MALT1 protein (Strep-MALT1(1-824)-His) (Homo sapiens);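 note: fluorogenic LRSR-AMC substrate cleavage by MALT1, 50 min compound preincubation then 4 h reaction at RT, 11-point dilution from 30 µM, scaled between enzyme-free and untreated enzyme controls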
- Sequence (Q9UDY8 1-824): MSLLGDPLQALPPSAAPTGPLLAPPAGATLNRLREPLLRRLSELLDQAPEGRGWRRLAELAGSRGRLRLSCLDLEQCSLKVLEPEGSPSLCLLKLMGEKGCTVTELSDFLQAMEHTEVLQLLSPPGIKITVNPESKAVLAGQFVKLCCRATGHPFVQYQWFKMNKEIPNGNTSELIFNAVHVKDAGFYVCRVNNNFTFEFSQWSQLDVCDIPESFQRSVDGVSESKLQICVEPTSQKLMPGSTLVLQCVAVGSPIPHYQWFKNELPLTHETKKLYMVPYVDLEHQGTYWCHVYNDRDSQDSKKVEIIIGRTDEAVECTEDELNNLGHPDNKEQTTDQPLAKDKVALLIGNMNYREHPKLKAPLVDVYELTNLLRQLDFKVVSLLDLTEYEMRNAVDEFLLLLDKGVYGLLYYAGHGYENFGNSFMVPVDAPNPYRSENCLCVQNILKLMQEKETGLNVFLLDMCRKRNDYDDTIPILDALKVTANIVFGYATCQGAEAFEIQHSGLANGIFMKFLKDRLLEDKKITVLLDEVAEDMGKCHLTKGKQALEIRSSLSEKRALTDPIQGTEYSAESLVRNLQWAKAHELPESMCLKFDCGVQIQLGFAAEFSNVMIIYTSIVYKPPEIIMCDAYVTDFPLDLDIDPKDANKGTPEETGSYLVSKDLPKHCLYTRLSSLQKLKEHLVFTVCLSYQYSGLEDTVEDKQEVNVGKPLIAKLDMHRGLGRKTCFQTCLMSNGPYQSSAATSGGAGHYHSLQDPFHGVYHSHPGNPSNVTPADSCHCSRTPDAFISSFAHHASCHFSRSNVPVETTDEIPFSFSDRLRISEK
Measured log10 of IC50 accompanies every entry in the list below.
measure_name: log10 of IC50 (log10 of the value in nM)

{"columns": ["compound", "assay_target", "measure_name", "obs_value"],
 "data": [
  ["O=C(Nc1cnc(-n2nccn2)c(Cl)c1)c1cnn(-c2c(Cl)cncc2Cl)c1C(F)(F)F [Cpd 67]", "full-length MALT1 protein (Strep-MALT1(1-824)-His) (Homo sapiens)", "log10 of IC50", 2.72],
  ["Cc1cc(-n2nccn2)c(C#N)cc1NC(=O)c1cnn(-c2ccc(F)c(N)n2)c1C(F)(F)F [Cpd 195]", "full-length MALT1 protein (Strep-MALT1(1-824)-His) (Homo sapiens)", "log10 of IC50", 3.08],
  ["N#Cc1cc(NC(=O)c2cnn(-c3ccc(N)nc3)c2C(F)(F)F)cnc1-n1nccn1 [Cpd 194]", "full-length MALT1 protein (Strep-MALT1(1-824)-His) (Homo sapiens)", "log10 of IC50", 3.07],
  ["N#Cc1cc(NC(=O)c2cnn(-c3ncc(F)cc3Cl)c2C(F)(F)F)cnc1-n1nccn1 [Cpd 106]", "full-length MALT1 protein (Strep-MALT1(1-824)-His) (Homo sapiens)", "log10 of IC50", 2.40],
  ["Cc1cc(-n2ncc(C(=O)Nc3cnc(-n4nccn4)c(C#N)c3)c2C(F)(F)F)c(Cl)cn1 [Cpd 70]", "full-length MALT1 protein (Strep-MALT1(1-824)-His) (Homo sapiens)", "log10 of IC50", 2.31],
  ["N#Cc1cc(NC(=O)c2cnn(-c3cccc(F)c3Cl)c2C(F)(F)F)cnc1-n1nccn1 [Cpd 61]", "full-length MALT1 protein (Strep-MALT1(1-824)-His) (Homo sapiens)", "log10 of IC50", 1.89],
  ["Cc1cc(Cl)ccc1-n1ncc(C(=O)Nc2cnc(-n3nccn3)c(Cl)c2)c1C(F)(F)F [Cpd 2]", "full-length MALT1 protein (Strep-MALT1(1-824)-His) (Homo sapiens)", "log10 of IC50", 2.12],
  ["CNc1cccc(-n2ncc(C(=O)Nc3cnc(-n4nccn4)c(C#N)c3)c2C(F)(F)F)n1 [Cpd 189]", "full-length MALT1 protein (Strep-MALT1(1-824)-His) (Homo sapiens)", "log10 of IC50", 2.64],
  ["Nc1cc(-n2ncc(C(=O)Nc3cnc(-n4nccn4)c(Cl)c3)c2C(F)(F)F)c(Cl)cn1 [Cpd 149]", "full-length MALT1 protein (Strep-MALT1(1-824)-His) (Homo sapiens)", "log10 of IC50", 1.93],
  ["Cc1cc(F)cnc1-n1ncc(C(=O)Nc2cnc(-n3nccn3)c(C#N)c2)c1C(F)(F)F [Cpd 113]", "full-length MALT1 protein (Strep-MALT1(1-824)-His) (Homo sapiens)", "log10 of IC50", 2.20],
  ["N#Cc1cc(NC(=O)c2cnn(-c3ccc(Cl)c(N)n3)c2C(F)(F)F)cnc1-n1nccn1 [Cpd 144]", "full-length MALT1 protein (Strep-MALT1(1-824)-His) (Homo sapiens)", "log10 of IC50", 1.54],
  ["O=C(Nc1cnc(-n2nccn2)c(Cl)c1)c1cnn(-c2ccc(F)cc2F)c1C(F)(F)F [Cpd 117]", "full-length MALT1 protein (Strep-MALT1(1-824)-His) (Homo sapiens)", "log10 of IC50", 2.46],
  ["O=C(Nc1cnc(-n2nccn2)c(Cl)c1)c1cnn(-c2ccc(F)c(N3CC(O)C3)n2)c1C(F)(F)F [Cpd 151]", "full-length MALT1 protein (Strep-MALT1(1-824)-His) (Homo sapiens)", "log10 of IC50", 3.38],
  ["COc1ccnc(-n2ncc(C(=O)Nc3cnc(-n4nccn4)c(Cl)c3)c2C(F)(F)F)c1Cl [Cpd 65]", "full-length MALT1 protein (Strep-MALT1(1-824)-His) (Homo sapiens)", "log10 of IC50", 3.76],
  ["O=C(Nc1cnc(-n2nccn2)c(Cl)c1)c1cnn(-c2ccc(F)nc2)c1C(F)(F)F [Cpd 121]", "full-length MALT1 protein (Strep-MALT1(1-824)-His) (Homo sapiens)", "log10 of IC50", 3.07],
  ["Cc1cc(F)cnc1-n1ncc(C(=O)Nc2cnc(-n3nccn3)c(Cl)c2)c1C(F)(F)F [Cpd 112]", "full-length MALT1 protein (Strep-MALT1(1-824)-His) (Homo sapiens)", "log10 of IC50", 2.66]
]}
